# Test system: 454973-116-R2-J3-PDC complex spheroid viability;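 further: spheroids exposed to drugs for seven days before measurement; percent viability relative to DMSO vehicle control wells taken as 100%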
# PROTOCOL: Anticancer human tumor 454973-116-R2-J3-PDC patient-derived pancreatic carcinoma cell line growth inhibition [POLQ]
# DETAILS: second compound 3.16 µM; first compound 3.16 µM; hits give low values
MEASUREMENT TYPE: viability, T/C (%)
Express the result in % but write the number alone.

Reference set, count: 4
[[record]]
compound = "C#Cc1c(F)ccc2cc(O)cc(-c3ncc4c(N5CC6CCC(C5)N6)nc(OCC56CCCN5CC(F)C6)nc4c3F)c12 (stereo not given) + Cc1cccc(N(C)C(=O)C2C(O)CCN2c2nc(C)cc(C(F)(F)F)c2C#N)c1"
observed = 28.2

[[record]]
compound = "O=c1[nH]cc(F)c(=O)[nH]1 + Cc1cccc(N(C)C(=O)C2C(O)CCN2c2nc(C)cc(C(F)(F)F)c2C#N)c1"
observed = 38.9

[[record]]
compound = "CCc1cc2c(N3CCc4c(cc(Cn5ccnc5)cc4-c4cn(C)nc4C(F)(F)F)C3=O)ccnc2c(OC)n1 + COC1C(OC(N)=O)C(O)C(Oc2ccc3c(O)c(NC(=O)c4ccc(O)c(CC=C(C)C)c4)c(=O)oc3c2C)OC1(C)C"
observed = 82.4

[[record]]
compound = "O=c1[nH]cc(F)c(=O)[nH]1 + COC1C(OC(N)=O)C(O)C(Oc2ccc3c(O)c(NC(=O)c4ccc(O)c(CC=C(C)C)c4)c(=O)oc3c2C)OC1(C)C"
observed = 63.4


viability, T/C recorded for this compound, CCCS(=O)(=O)Nc1ccc(F)c(C(=O)c2c[nH]c3ncc(-c4ccc(Cl)cc4)cc23)c1F + Nc1ccc(C#CCN(C(=O)Cc2ncc(C(F)(F)F)cc2C(F)(F)F)c2ccc(F)cc2)nn1 , is 113
